test: Example 3 Part C: tablet single ascending doses, morning fasted vs 8 p.m., plasma pharmacokinetics; assay type: in vivo, human; conditions: human, in vivo, 60 mg
metric: Tmax (h)
Give bare numbers, in h.

Sample COC[C@@]1(O)CC[C@@]2(C)[C@@H](CC[C@@H]3[C@@H]2CC[C@]2(C)[C@@H](C(=O)Cn4ccnc4)CC[C@@H]32)C1 — what was its Tmax? 2.5

----------
assay: Example 3 Part A: oral suspension administered at 4 p.m. vs 8 p.m., plasma pharmacokinetics; format: in vivo, human; conditions: human, in vivo, po, 60 mg, AUCinf
metric: AUC(0-inf) (µg·h/mL)
Give bare numbers, in µg·h/mL.

GET /values?readout=AUC(0-inf)&item= COC[C@@]1(O)CC[C@@]2(C)[C@@H](CC[C@@H]3[C@@H]2CC[C@]2(C)[C@@H](C(=O)Cn4ccnc4)CC[C@@H]32)C1 [Compound 1] 2.8

Where these numbers come from: patent US20240197756A1
